- Tested on: HT-29 (Colorectal Carcinoma)
- Assay summary: combination Emax (second highest fraction inhibited in the dose matrix, 72 h); higher = more inhibition; extreme values may be limits of the assay
Measurement name: combination Emax

| Compound | Value observed |
| --- | --- |
| CN(CCO)CC[C@H](CSc1ccccc1)Nc1ccc(S(=O)(=O)NC(=O)c2ccc(N3CCC([C@@H](O)c4ccccc4-c4ccc(Cl)cc4)CC3)cc2)cc1S(=O)(=O)C(F)(F)F [AZD4320] + C=CCn1c(=O)c2cnc(Nc3ccc(N4CCN(C)CC4)cc3)nc2n1-c1cccc(C(C)(C)O)n1 [AZD1775] (first compound max 1 µM, partner max 1 µM) | 0.965 |
| CN(CCO)CC[C@H](CSc1ccccc1)Nc1ccc(S(=O)(=O)NC(=O)c2ccc(N3CCC([C@@H](O)c4ccccc4-c4ccc(Cl)cc4)CC3)cc2)cc1S(=O)(=O)C(F)(F)F [AZD4320] + CC(=O)O[C@H]1C(=O)[C@@]2(C)[C@H]([C@H](OC(=O)c3ccccc3)[C@]3(O)C[C@H](OC(=O)[C@H](O)[C@@H](NC(=O)c4ccccc4)c4ccccc4)C(C)=C1C3(C)C)[C@]1(OC(C)=O)CO[C@@H]1C[C@@H]2O [Paclitaxel] (first compound max 1 µM, 7x7, partner max 3 µM) | 0.885 |
| CS(=O)(=O)CCNCc1ccc(-c2ccc3ncnc(Nc4ccc(OCc5cccc(F)c5)c(Cl)c4)c3c2)o1 [Lapatinib] + Cn1cnc2c(F)c(Nc3ccc(Br)cc3Cl)c(C(=O)NOCCO)cc21 [Selumetinib] (first compound max 10 µM, 7x7, partner max 10 µM) | 0.958 |
| COc1nnc2ccc(N3CCC(c4ccc(OCCN5CCN(C)C(=O)[C@H]5C)cc4)CC3)nn12 [AZD5153] + CCN(CCO)CCCOc1ccc2c(Nc3cc(CC(=O)Nc4cccc(F)c4)[nH]n3)ncnc2c1 [AZD2811] (first compound max 1 µM, 7x7, partner max 1 µM) | 0.72 |
| C[C@@H](c1ccc2nccn2c1)n1nnc2ncc(-c3cnn(C)c3)nc21 [Savolitinib] + CC1(C)CCC(CN2CCN(c3ccc(C(=O)NS(=O)(=O)c4ccc(NCC5CCOCC5)c([N+](=O)[O-])c4)c(Oc4cnc5[nH]ccc5c4)c3)CC2)=C(c2ccc(Cl)cc2)C1 [Venetoclax] (first compound max 1 µM, 7x7, partner max 1 µM) | 0.149 |
